STUDY SYSTEM: Glycogen phosphorylase, muscle form (Oryctolagus cuniculus)
Sequence (P00489 whole entry): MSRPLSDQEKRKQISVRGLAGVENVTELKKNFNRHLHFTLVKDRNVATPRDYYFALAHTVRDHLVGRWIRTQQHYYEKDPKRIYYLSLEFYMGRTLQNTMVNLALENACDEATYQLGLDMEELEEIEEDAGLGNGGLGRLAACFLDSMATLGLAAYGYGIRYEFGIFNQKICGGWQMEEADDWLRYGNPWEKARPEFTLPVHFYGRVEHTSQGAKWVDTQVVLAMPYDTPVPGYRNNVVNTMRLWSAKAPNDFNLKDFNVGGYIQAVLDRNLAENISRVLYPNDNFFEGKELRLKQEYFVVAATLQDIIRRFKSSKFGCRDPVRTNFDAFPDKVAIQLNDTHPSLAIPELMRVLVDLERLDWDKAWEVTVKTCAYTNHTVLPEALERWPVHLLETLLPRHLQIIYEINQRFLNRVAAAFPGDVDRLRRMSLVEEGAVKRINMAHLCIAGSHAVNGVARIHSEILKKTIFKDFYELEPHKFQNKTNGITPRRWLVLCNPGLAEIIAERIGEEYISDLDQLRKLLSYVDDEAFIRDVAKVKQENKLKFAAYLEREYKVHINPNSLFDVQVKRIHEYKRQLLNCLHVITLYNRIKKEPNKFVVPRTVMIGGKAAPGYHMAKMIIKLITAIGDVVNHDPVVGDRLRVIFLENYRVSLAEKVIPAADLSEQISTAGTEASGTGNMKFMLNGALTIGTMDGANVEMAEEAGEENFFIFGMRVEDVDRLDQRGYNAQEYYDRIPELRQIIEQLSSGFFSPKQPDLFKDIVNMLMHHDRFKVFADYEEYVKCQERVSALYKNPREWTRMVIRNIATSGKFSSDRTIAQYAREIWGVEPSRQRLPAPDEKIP
MEASUREMENT KIND: Ki (µM)

>>> measured_number("O=C1N/C(=N/S(=O)(=O)c2ccc3ccccc3c2)S[C@@]12O[C@H](CO)[C@@H](O)[C@H](O)[C@H]2O")
153
>>> measured_number("O=C(/N=C1/NC(=O)[C@]2(O[C@H](CO)[C@@H](O)[C@H](O)[C@H]2O)S1)c1ccccc1")
9
>>> measured_number("O=C(/N=C1/NC(=O)[C@]2(O[C@H](CO)[C@@H](O)[C@H](O)[C@H]2O)S1)c1cccc2ccccc12")
15

P = Cc1ccc(S(=O)(=O)/N=C2/NC(=O)[C@]3(O[C@H](CO)[C@@H](O)[C@H](O)[C@H]3O)S2)cc1
Q = N=C1NC(=O)[C@]2(O[C@H](CO)[C@@H](O)[C@H](O)[C@H]2O)S1
Query string: // pick min by Ki: P , Q Your choice should be expressed through its label.
Result string: Q
